B1: Protein PTHB1 (Homo sapiens), Q3SYG4 (parent)
chain: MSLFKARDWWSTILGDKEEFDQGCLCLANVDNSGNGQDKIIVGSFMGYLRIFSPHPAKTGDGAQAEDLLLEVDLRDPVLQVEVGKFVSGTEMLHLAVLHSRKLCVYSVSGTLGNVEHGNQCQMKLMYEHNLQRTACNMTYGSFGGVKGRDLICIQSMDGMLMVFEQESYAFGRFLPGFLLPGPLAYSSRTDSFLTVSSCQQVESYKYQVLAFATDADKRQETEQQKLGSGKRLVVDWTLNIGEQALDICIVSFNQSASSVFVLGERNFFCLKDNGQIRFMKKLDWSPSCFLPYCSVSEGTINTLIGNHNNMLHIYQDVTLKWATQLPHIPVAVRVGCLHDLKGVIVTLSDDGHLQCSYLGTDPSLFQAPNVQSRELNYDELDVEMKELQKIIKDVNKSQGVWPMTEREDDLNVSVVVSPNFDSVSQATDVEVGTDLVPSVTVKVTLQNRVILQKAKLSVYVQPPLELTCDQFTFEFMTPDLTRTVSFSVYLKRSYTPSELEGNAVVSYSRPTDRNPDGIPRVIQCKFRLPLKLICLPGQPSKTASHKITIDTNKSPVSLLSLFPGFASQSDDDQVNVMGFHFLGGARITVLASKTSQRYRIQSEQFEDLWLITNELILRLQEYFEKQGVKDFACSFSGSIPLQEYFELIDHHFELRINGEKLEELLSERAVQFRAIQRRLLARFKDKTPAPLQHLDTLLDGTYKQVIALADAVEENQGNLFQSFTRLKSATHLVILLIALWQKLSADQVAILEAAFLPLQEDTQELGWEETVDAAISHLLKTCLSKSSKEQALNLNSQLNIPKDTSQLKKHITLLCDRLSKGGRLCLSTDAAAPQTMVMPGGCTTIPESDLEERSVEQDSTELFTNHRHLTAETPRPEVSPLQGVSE
partner: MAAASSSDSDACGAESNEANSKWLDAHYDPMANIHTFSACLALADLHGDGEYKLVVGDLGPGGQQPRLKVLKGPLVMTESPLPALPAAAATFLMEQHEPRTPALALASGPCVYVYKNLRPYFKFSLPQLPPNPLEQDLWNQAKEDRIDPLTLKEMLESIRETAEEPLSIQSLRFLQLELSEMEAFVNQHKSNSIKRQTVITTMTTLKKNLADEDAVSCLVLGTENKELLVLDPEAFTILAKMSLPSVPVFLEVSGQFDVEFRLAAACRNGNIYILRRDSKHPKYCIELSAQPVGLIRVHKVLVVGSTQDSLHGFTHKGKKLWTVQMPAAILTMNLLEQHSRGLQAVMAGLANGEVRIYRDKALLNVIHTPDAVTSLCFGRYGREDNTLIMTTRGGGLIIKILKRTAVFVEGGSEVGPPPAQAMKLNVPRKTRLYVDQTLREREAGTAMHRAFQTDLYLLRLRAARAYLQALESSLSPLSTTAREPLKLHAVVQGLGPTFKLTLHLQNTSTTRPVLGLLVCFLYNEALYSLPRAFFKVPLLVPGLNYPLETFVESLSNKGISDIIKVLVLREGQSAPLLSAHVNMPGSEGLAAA

variants of: B1; details: with bbs1_human BBS1, Q8NFJ9
measure name: effect of a mutation on the interaction

mutation_name=Q677E measure_name="effect of a mutation on the interaction" result="with no effect"
mutation_name=D711E measure_name="effect of a mutation on the interaction" result="with no effect"
mutation_name=N515E measure_name="effect of a mutation on the interaction" result="with no effect"
mutation_name=F721K measure_name="effect of a mutation on the interaction" result="with no effect"
mutation_name=G638A measure_name="effect of a mutation on the interaction" result="with no effect"
mutation_name=R514A measure_name="effect of a mutation on the interaction" result="with no effect"
mutation_name=D773A measure_name="effect of a mutation on the interaction" result="with no effect"
mutation_name=I640K measure_name="effect of a mutation on the interaction" result="with no effect"
mutation_name=C816E measure_name="effect of a mutation on the interaction" result="with no effect"
mutation_name=A755K measure_name="effect of a mutation on the interaction" result="with no effect"
mutation_name=V522A measure_name="effect of a mutation on the interaction" result="with no effect"
mutation_name=C535E measure_name="effect of a mutation on the interaction" result="with no effect"
mutation_name=L491E measure_name="effect of a mutation on the interaction" result="with no effect"
mutation_name=L699A measure_name="effect of a mutation on the interaction" result="with no effect"
mutation_name=E769K measure_name="effect of a mutation on the interaction" result="with no effect"
mutation_name=F632E measure_name="effect of a mutation on the interaction" result="with no effect"
mutation_name=D571A measure_name="effect of a mutation on the interaction" result="with no effect"
mutation_name=S637E measure_name="effect of a mutation on the interaction" result="with no effect"
mutation_name=I657K measure_name="effect of a mutation on the interaction" result="with no effect"
mutation_name=L819E measure_name="effect of a mutation on the interaction" result="with no effect"
mutation_name=R876K measure_name="effect of a mutation on the interaction" result="with no effect"
mutation_name=T874K measure_name="effect of a mutation on the interaction" result="with no effect"
mutation_name=P463E measure_name="effect of a mutation on the interaction" result="with no effect"
mutation_name=V442K measure_name="effect of a mutation on the interaction" result="with no effect"
mutation_name=H694A measure_name="effect of a mutation on the interaction" result="with no effect"
mutation_name=Q672A measure_name="effect of a mutation on the interaction" result="with no effect"
mutation_name=T844E measure_name="effect of a mutation on the interaction" result="with no effect"
mutation_name=D551A measure_name="effect of a mutation on the interaction" result="with no effect"
mutation_name=A670K measure_name="effect of a mutation on the interaction" result="with no effect"
mutation_name=N716A measure_name="effect of a mutation on the interaction" result="with no effect"
mutation_name=L827K measure_name="effect of a mutation on the interaction" result="with no effect"
mutation_name=E660A measure_name="effect of a mutation on the interaction" result="with no effect"
mutation_name=N448A measure_name="effect of a mutation on the interaction" result="with no effect"
mutation_name=G538A measure_name="effect of a mutation on the interaction" result="with no effect"
mutation_name=R493K measure_name="effect of a mutation on the interaction" result="with no effect"
mutation_name=S787K measure_name="effect of a mutation on the interaction" result="with no effect"
mutation_name=F421K measure_name="effect of a mutation on the interaction" result="with no effect"
mutation_name=L733K measure_name="effect of a mutation on the interaction" result="with no effect"
mutation_name=Q677A measure_name="effect of a mutation on the interaction" result="with no effect"
mutation_name=H778K measure_name="effect of a mutation on the interaction" result="with no effect"
mutation_name=Q621E measure_name="effect of a mutation on the interaction" result="with no effect"
mutation_name=L766A measure_name="effect of a mutation on the interaction" result="with no effect"
mutation_name=K809A measure_name="effect of a mutation on the interaction" result="with no effect"
mutation_name=N515A measure_name="effect of a mutation on the interaction" result="with no effect"
mutation_name=D747E measure_name="effect of a mutation on the interaction" result="with no effect"

Data provenance is IntAct's records for PubMed 29039417.
